# SUBJECT_OF_TEST: T1, human PILRA G78 on cells (human, UniProt Q9UKJ1 20-303)
# T1 construct: wild-type iMicroglia are R78/G78 heterozygous (said in the assay field); also called hPILRA; hPILRA G78
# PROCEDURE_SUMMARY: flow cytometry on HEK293 cells expressing hPILRA G78
Recorded measurements of pEC50, one per entry
Just so you know, pEC50 here is -log10 of the concentration in molar units; reply with that number alone.

Anti-PILRA antibody clone 15 (antibody, V domains shown, Humanized; also called Ab.15) VH: EVQLVQSGAEVKKPGASVKVSCKASGYTFTEYYMYWVRQAPGQGLELIGRIDPEDGGTDYIEKFKNRSTLTADTSTSTAYLELSSLRSEDTAVYFCATTIRGTVFAFWGQGTLVTVSS VL: DIQMTQSPSSLSASVGDRVTITCRASEDIFNGLAWYQQKPGKSPKLLIYNAKTLHTGVPSRFSGSGSGSDYTLTISSLQPEDFATYFCQQYYDYPLTFGQGTKVEIK	7.95

Query block: Look up and report measured pEC50 for this entry: Anti-PILRA antibody clone 23 (antibody, V domains shown, Humanized; also called Ab.23) VH: EVQLVQSGAEVKKPGASVKVSCKASGYTFTEYYMYWVRQAPGQGLELIGRIDPEDGGTDYVEKFKNRATLTADTSTSTAYLELSSLRSEDTAVYFCASTIRGTVFVYWGQGTLVTVSS VL: DIQMTQSPSSLSASVGDRVTITCRPSEDIYNGLAWYQQKPGKAPKLLIYNANSLHTGVPSRFSGSGSGTDYTLTISSLQPEDFATYYCQQYYDYPLTFGQGTKVEIK
Result block: 7.67

Query block: Look up and report measured pEC50 for this entry: Anti-PILRA antibody clone 35 (antibody, V domains shown, Humanized; also called Ab.35) VH: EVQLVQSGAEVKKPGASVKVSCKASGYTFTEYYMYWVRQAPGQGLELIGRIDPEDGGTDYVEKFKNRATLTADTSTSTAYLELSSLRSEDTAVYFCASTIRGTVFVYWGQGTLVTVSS VL: DIQMTQSPSSLSASVGDRVTITCRPSEDIYNGLAWYQQKPGKSPKLLIYNANSLHTGVPSRFSGSGSGTDYTLTISSLQPEDFATYFCQQYYDYPLTFGQGTKVEIK
Result block: 7.89

Query block: Look up and report measured pEC50 for this entry: Anti-PILRA antibody clone 12 (antibody, V domains shown, Humanized; also called Ab.12) VH: EVQLVQSGAEVKKPGASVKVSCKASGYTFTEYYMYWVRQAPGQGLELIGRIDPEDGGTDYIEKFKNRVTITADTSTSTAYLELSSLRSEDTAVYYCATTIRGTVFAFWGQGTLVTVSS VL: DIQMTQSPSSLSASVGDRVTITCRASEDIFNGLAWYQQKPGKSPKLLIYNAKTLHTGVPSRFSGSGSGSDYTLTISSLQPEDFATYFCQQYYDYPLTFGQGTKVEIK
Result block: 7.92

Source listed as patent US20260109763A1.
